biological target: T1, human IFN-ω (human, UniProt P05000 24-195); assay: ProteOn, one antigen concentration
T1 construct: also called interferon omega
Record form. Attribute: Kd. Fill in for each entry.
Provide the reading as a plain figure in nM.

For the binder IFWM3312 (antibody, V domains shown, VH IFWH591, VL IFWL1010; converted mAb; also called IFWB3047) VH: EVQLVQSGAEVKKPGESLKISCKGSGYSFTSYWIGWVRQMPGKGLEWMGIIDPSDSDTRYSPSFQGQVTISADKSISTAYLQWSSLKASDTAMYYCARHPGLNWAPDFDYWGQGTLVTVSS VL: DIQMTQSPSSLSASVGDRVTITCRASQSIDGALNWYQQKPGKAPKLLIYFASSLQSGVPSRFSGSGSGTDFTLTISSLQPEDFATYYCQQSFDFPLTFGQGTKVEIK , give its measured Kd value.
0.013

For the binder IFWM3305 (antibody, V domains shown, VH IFWH591, VL IFWL998; converted mAb; also called IFWB3040) VH: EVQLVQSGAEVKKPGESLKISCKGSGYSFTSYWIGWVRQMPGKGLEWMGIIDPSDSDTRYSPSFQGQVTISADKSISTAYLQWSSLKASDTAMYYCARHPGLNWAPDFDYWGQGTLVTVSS VL: DIQMTQSPSSLSASVGDRVTITCRASQSISKFLNWYQQKPGKAPKLLIYFASSLQSGVPSRFSGSGSGTDFTLTISSLQPEDFATYYCQQSNTLPFTFGQGTKVEIK , give its measured Kd value.
0.031

For the binder IFWM3318 (antibody, V domains shown, VH IFWH591, VL IFWL1038; converted mAb; also called IFWB3053) VH: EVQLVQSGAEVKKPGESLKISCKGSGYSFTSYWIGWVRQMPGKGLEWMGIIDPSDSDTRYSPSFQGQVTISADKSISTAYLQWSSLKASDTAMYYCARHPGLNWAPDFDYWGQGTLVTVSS VL: DIQMTQSPSSLSASVGDRVTITCRASQSISEYLNWYQQKPGKAPKLLIYFASSLQSGVPSRFSGSGSGTDFTLTISSLQPEDFATYYCQQSHSLPITFGQGTKVEIK , give its measured Kd value.
0.018
